# target desc: human OT7T175 (metastin receptor) (human, UniProt Q969F8 1-398)
# Sequence (Q969F8 whole entry L364H): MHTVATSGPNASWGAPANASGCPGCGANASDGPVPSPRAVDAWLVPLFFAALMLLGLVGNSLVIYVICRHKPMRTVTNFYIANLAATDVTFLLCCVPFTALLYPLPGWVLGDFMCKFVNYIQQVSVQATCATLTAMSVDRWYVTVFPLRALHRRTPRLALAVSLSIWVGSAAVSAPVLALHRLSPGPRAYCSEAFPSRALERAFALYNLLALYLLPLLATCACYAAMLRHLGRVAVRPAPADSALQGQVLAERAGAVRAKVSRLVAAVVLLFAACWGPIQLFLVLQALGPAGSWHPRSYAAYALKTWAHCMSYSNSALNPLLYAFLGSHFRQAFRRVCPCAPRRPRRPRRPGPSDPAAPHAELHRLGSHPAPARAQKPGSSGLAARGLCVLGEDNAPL
# protocol summary: cell-based or functional assay
Square brackets hold non-standard residues; d marks the D form. Ends that are not written are not given here. * marks the point of attachment. Phe(3,4-Cl2) = N[C@@H](Cc1ccc(Cl)c(Cl)c1)C(=O)O; Phe(4-NH2) = Nc1ccc(C[C@H](N)C(=O)O)cc1; Arg(Me) = CNC(=N)NCCC[C@H](N)C(=O)O; Fmoc = O=C(OCC1c2ccccc2-c2ccccc21)*; Cha = N[C@@H](CC1CCCCC1)C(=O)O; Abu = CC[C@H](N)C(=O)O
# intracellular Ca ion level-increasing activity (FLIPR) annotations

binder="YNWNSFG[Abu]RF-NH2 (N-terminus assumed; SMILES CC[C@H](NC(=O)CNC(=O)[C@H](Cc1ccccc1)NC(=O)[C@H](CO)NC(=O)[C@H](CC(N)=O)NC(=O)[C@H](Cc1c[nH]c2ccccc12)NC(=O)[C@H](CC(N)=O)NC(=O)[C@@H](N)Cc1ccc(O)cc1)C(=O)N[C@@H](CCCNC(=N)N)C(=O)N[C@@H](Cc1ccccc1)C(N)=O) [Compound No. 187: [Abu8]MS10]" result="1 specific activity to metastin (1-54)"
binder="[dY]N[Cha]NSFGL[Arg(Me)]F-NH2 (N-terminus assumed; SMILES CNC(=N)NCCC[C@H](NC(=O)[C@H](CC(C)C)NC(=O)CNC(=O)[C@H](Cc1ccccc1)NC(=O)[C@H](CO)NC(=O)[C@H](CC(N)=O)NC(=O)[C@H](CC1CCCCC1)NC(=O)[C@H](CC(N)=O)NC(=O)[C@H](N)Cc1ccc(O)cc1)C(=O)N[C@@H](Cc1ccccc1)C(N)=O) [Compound No. 171: [D-Tyr1,Cha3,Arg(Me)9]MS10]" result="10 specific activity to metastin (1-54)"
binder="YNWNSFGLR[Phe(3,4-Cl2)]-NH2 [Compound No. 199: [Phe(3,4Cl2)10]MS10]" result="3 specific activity to metastin (1-54)"
binder="YN[dW]NSFGL[Arg(Me)]F-NH2 [Compound No. 143: [D-Trp3,Arg(Me)9]MS10]" result="3 specific activity to metastin (1-54)"
binder="YNWNSFGLRX (Nal(1)10; C-terminal amide) [Compound No. 133: [Nal(1)10]MS10]" result="3 specific activity to metastin (1-54)"
binder="[dY]NSNSFGL[Arg(Me)]F-NH2 (N-terminus assumed; SMILES CNC(=N)NCCC[C@H](NC(=O)[C@H](CC(C)C)NC(=O)CNC(=O)[C@H](Cc1ccccc1)NC(=O)[C@H](CO)NC(=O)[C@H](CC(N)=O)NC(=O)[C@H](CO)NC(=O)[C@H](CC(N)=O)NC(=O)[C@H](N)Cc1ccc(O)cc1)C(=O)N[C@@H](Cc1ccccc1)C(N)=O) [Compound No. 170: [D-Tyr1,Ser3,Arg(Me)9]MS10]" result="1 specific activity to metastin (1-54)"
binder="[dY]N[Cha]NS[Cha]GL[Arg(Me)]W-NH2 (N-terminus assumed; SMILES CNC(=N)NCCC[C@H](NC(=O)[C@H](CC(C)C)NC(=O)CNC(=O)[C@H](CC1CCCCC1)NC(=O)[C@H](CO)NC(=O)[C@H](CC(N)=O)NC(=O)[C@H](CC1CCCCC1)NC(=O)[C@H](CC(N)=O)NC(=O)[C@H](N)Cc1ccc(O)cc1)C(=O)N[C@@H](Cc1c[nH]c2ccccc12)C(N)=O) [Compound No. 182: [D-Tyr1,Cha3,6,Arg(Me)9,Trp10]MS10]" result="5 specific activity to metastin (1-54)"
binder="YNWNSFGLR[Phe(4-NH2)]-NH2 [Compound No. 131: [Phe(4NH2)10]MS10]" result="3 specific activity to metastin (1-54)"
binder="Fmoc-NSFGL[Arg(Me)]F-NH2 [Compound No. 144: des(1-3)-Fmoc-[Arg(Me)9]MS10]" result="1 specific activity to metastin (1-54)"

Here's the next entry for you.
INPUT: Identify measured intracellular Ca ion level-increasing activity (FLIPR) corresponding to [dY]NANSFGL[Arg(Me)]F-NH2 (N-terminus assumed; SMILES CNC(=N)NCCC[C@H](NC(=O)[C@H](CC(C)C)NC(=O)CNC(=O)[C@H](Cc1ccccc1)NC(=O)[C@H](CO)NC(=O)[C@H](CC(N)=O)NC(=O)[C@H](C)NC(=O)[C@H](CC(N)=O)NC(=O)[C@H](N)Cc1ccc(O)cc1)C(=O)N[C@@H](Cc1ccccc1)C(N)=O) [Compound No. 169: [D-Tyr1,Ala3,Arg(Me)9]MS10]
OUTPUT: 2 specific activity to metastin (1-54)
